target: CDK2 (Homo sapiens); construct: endogenous in cells; host or cells: MKN1 cells; experiment: CDK2 degradation in MKN1 cells (AlphaLISA); format: cell-based; details: 14 h incubation, read-out: CDK2 degradation 14 h: Mean external-Abs DC50
Answer each item with its documented DC50.

Consider the following illustrative entries.
- COMPOUND: "Cc1cc(S(=O)(=O)NC2CCN(CC3CCN(c4ccc(C5CCC(=O)NC5=O)cc4F)CC3)CC2F)ccc1Nc1ncc(C(F)(F)F)c(N2CCCC(C)(O)C2)n1 (stereo not drawn) [I-1054]"
  TESTED_TARGET: "CDK2 (Homo sapiens)"
  DC50: "< 100 nM"
- COMPOUND: "Cc1cc(S(=O)(=O)C2CC3(CCN(CC4CCN(c5ccc(OC6CCC(=O)NC6=O)cc5)CC4)CC3)C2)ccc1Nc1ncc2cc(Cl)c(=O)n(C3CCCC3)c2n1 (stereo not drawn) [I-73]"
  TESTED_TARGET: "CDK2 (Homo sapiens)"
  DC50: "< 100 nM"

We next turn to a different compound, shown below.
Noted for Cc1cc(S(=O)(=O)C2CCC(CN(C)C3CCN(c4cccc5c4n(C)c(=O)n5C4CCC(=O)NC4=O)CC3)CC2)ccc1Nc1ncc(C(F)(F)F)c(-c2cnn(C)c2)n1 (stereo not drawn) [I-46] : its DC50 reads < 100 nM

###

target: CDK2 (Homo sapiens); construct: endogenous in cells; host or cells: MKN1 cells; assay: CDK2 degradation in MKN1 cells (AlphaLISA); format: cell-based; conditions: 14 h incubation, read-out: CDK2 degradation 14 h: Mean external-Abs DC50
Please go through the items and note down their DC50.

# example entries with known answers
- COMPOUND: "Cc1cc(S(=O)(=O)NC2CC(N3CCN(CC4CCN(c5ccc(NC6CCC(=O)NC6=O)cc5C)CC4)CC3)C2)ccc1Nc1ncc(C(F)(F)F)c(N2CCCC(C)(O)C2)n1 (centres unmarked)"
  DC50: "< 100 nM"
- COMPOUND: "CC1(O)CCCN(c2nc(Nc3ccc(S(=O)(=O)NC4CCN(CC5CCN(c6ccc(C7CCC(=O)NC7=O)c(F)c6)CC5)CC45CC5)cc3F)ncc2C(F)(F)F)C1 (centres unmarked)"
  DC50: "< 100 nM"
- COMPOUND: "Cc1cc(S(=O)(=O)C2CC3(CCN(CC4CCN(c5ccc6c(c5F)n(C)c(=O)n6C5CCC(=O)NC5=O)CC4)CC3)C2)ccc1Nc1ncc2c(n1)N(C1CCCC1)C(=O)C2(C)C (centres unmarked)"
  DC50: "< 100 nM"
- COMPOUND: "CC1(O)CCCN(c2nc(Nc3ccc(S(=O)(=O)NC4CCC5(CC4)CN(CC4CCN(c6ccc(C7CCC(=O)NC7=O)c(F)c6)CC4)C5)cc3F)ncc2C(F)(F)F)C1 (centres unmarked)"
  DC50: "< 100 nM"

Attention now shifts to the item below.
Entry under test: Cc1cc(S(=O)(=O)C2CC3(CCN(CC4CCN(c5cccc6c5n(C)c(=O)n6C5CCC(=O)NC5=O)CC4)CC3)C2)ccc1Nc1ncc(C(F)(F)F)c(N2CCCC(C)(O)C2)n1 (centres unmarked) . Its DC50 was 500 to 1000 nM

###

Biological target: CDK2 (Homo sapiens, UniProt P24941)
Construct: endogenous in cells; host or cells: MKN1 cells
Assay: CDK2 degradation in MKN1 cells (AlphaLISA)
Assay type: cell-based
Conditions: 14 h incubation, read-out: CDK2 degradation 14 h: Mean external-Abs DC50
Experimental: Degradation of CDK2 in MKN1 cells was measured using AlphaLISA technology (PerkinElmer ALSU-TCDK2-A10K). MKN1 cells were maintained in RPMI1640 medium containing 10% FBS+1× penn/strep. […] Under subdued light, the plates were analyzed on an EnVision Microplate Reader (PerkinElmer Model 2009-0030). […] The data were analyzed using Xlfit (v5.3. 1.3) and the dose-dependent CDK2 degradation data were fit using a four-parameter logistic model to calculate DC50.
PARAMETER_MEASURED: DC50

Examples from the recorded data:
- MOLECULE: "Cc1cc(S(=O)(=O)NCCOCCOCCOCCOCCNc2cccc3c2C(=O)N(C2CCC(=O)NC2=O)C3=O)ccc1Nc1ncc2cc(C(F)F)c(=O)n(C3CCCC3(C)O)c2n1 (centres unmarked)"
  DC50: "< 100 nM"
- MOLECULE: "Cc1cc(S(=O)(=O)C2CC3(CCN(CC4CCN(c5ccc6c(c5F)n(C)c(=O)n6C5CCC(=O)NC5=O)CC4)CC3)C2)ccc1Nc1ncc(C(F)(F)F)c(N2CCC(C)C(C)(O)C2)n1 (centres unmarked)"
  DC50: "< 100 nM"
- MOLECULE: "Cc1cc(S(=O)(=O)N2CCC3(CCN(c4cccc5c4n(C)c(=O)n5C4CCC(=O)NC4=O)CC3)CC2)ccc1Nc1ncc2cc(Cl)c(=O)n(C(C)C)c2n1 (centres unmarked)"
  DC50: "> 1000 nM"

Batch request: DC50 for each of the following molecules.
1. Cc1cc(S(=O)(=O)N2CCC(Cn3cnc4c3CCN(c3ccc5c(c3F)n(C)c(=O)n5C3CCC(=O)NC3=O)C4)CC2)ccc1Nc1ncc2ccc(=O)n(C3CCCC3)c2n1 (centres unmarked)
2. CC1(O)CCCN(c2nc(Nc3ccc(S(=O)(=O)NC4CCC(CCN5CCN(c6ccc(C7CCC(=O)NC7=O)c(F)c6)CC5)CC4)cc3C(F)F)ncc2C(F)(F)F)C1 (centres unmarked)

["> 1000 nM", "100 to 500 nM"]

# batch size: 6; output DC50 per entry
1. Cc1cc(S(=O)(=O)N[C@H](C)CO[C@H]2CC[C@H](CN3CCN(c4cccc5c4n(C)c(=O)n5C4CCC(=O)NC4=O)CC3)CC2)ccc1Nc1ncc(C(F)(F)F)c(N2CCC[C@](C)(O)C2)n1 (some centres unmarked)
2. Cc1cc(S(=O)(=O)NCCOCCOCCOCCOCCCc2ccc3c(c2)n(C)c(=O)n3C2CCC(=O)NC2=O)ccc1Nc1ncc2cc(C(F)F)c(=O)n(C3CCCC3(C)O)c2n1 (centres unmarked)
3. CC1(O)CCCN(c2nc(Nc3ccc(S(=O)(=O)NC4CCN(CC5(C)CCN(c6ccc(C7CCC(=O)NC7=O)cc6F)CC5)CC4F)cc3F)ncc2C(F)(F)F)C1 (centres unmarked)
4. Cc1cc(S(=O)(=O)NC2CCC(CN3CCN(c4cc(NC5CCC(=O)NC5=O)ccc4F)CC3)CC2)ccc1Nc1ncc(C(F)(F)F)c(N2CCCC(C)(O)C2)n1 (centres unmarked)
5. Cc1cc(S(=O)(=O)NC2CCC(N3CCN(c4ccc(C5CCC(=O)NC5=O)c(Cl)c4)CC3)CC2)ccc1Nc1ncc(C(F)(F)F)c(N2CCCC(C)(O)C2)n1 (centres unmarked)
6. Cc1cc(S(=O)(=O)NC2CCC(CN3CCN(c4ccc(C5CCC(=O)NC5=O)c(F)c4)CC3)CC2)ncc1Nc1ncc(C(F)(F)F)c(N2CCCC(C)(O)C2)n1 (centres unmarked)

< 100 nM
< 100 nM
100 to 500 nM
< 100 nM
< 100 nM
< 100 nM

Every entry's value here was drawn from patent US20240173419A1.
